chromatographic logP reference
assay_procedure: logP determination by HPLC (EEC Directive 79/831 Annex V. A8)
Format: physicochemical
condition_parameters: acetonitrile/0.1% aqueous phosphoric acid, gradient method, acetonitrile/0.1% strength aqueous phosphoric acid
Answer using only a numeral; do not append any unit.

Below: 2 compounds and their reported chromatographic logP.
| structure_smiles | chromatographic logP |
| --- | --- |
| CON=C(C1=NOCCO1)c1ccccc1CSC(=Nc1ccc(OC)cc1)C1CC1 | 3.16 |
| CON=C(C1=NOCCO1)c1ccccc1CSC(=Nc1ccc(OC)nc1)C1CC1 | 3.04 |

Lab note: next compound to report on.
According to the records, this compound `CON=C(C1=NOCCO1)c1ccccc1CSC(=Nc1ccccc1C(F)(F)F)C1CC1` displays chromatographic logP of 4.16
